Test system: Mtb strain mc^27000
Experiment: microbe, parasite or virus in culture
Assay type: cell-based, Mycobacterium tuberculosis
Conditions: Mycobacterium tuberculosis, Mtb mc^27000, liquid medium, 96-well plates; read-out: MIC
// boundary case: MIC equal to 4 µM maps to NOT MET; strictly smaller maps to MET

- molecule: "CCOC(=O)CCCC1CCN(CCCc2c(O)ccc3oc(-c4ccccc4)c(C(=O)OCC)c23)C1 (centres unmarked)"
  category-label: "MET"
- molecule: "CCOC(=O)c1c(-c2ccccc2)oc2ccc(O)c(CCCN3CCC3)c12"
  category-label: "MET"
- molecule: "CNC(=O)c1c(-c2ccc(O)cc2)oc2ccc(O)c(CN3CCC(C#N)CC3)c12"
  category-label: "NOT MET"
- molecule: "CCOC(=O)c1c(-c2ccccc2)oc2cc([N+](=O)[O-])c(O)c(CN3CCCCC3)c12"
  category-label: "NOT MET"
- molecule: "CCNC(=O)c1c(-c2ccccc2)oc2ccc(O)c(CN3CCCCC3)c12"
  category-label: "NOT MET"
- molecule: "CCOC(=O)c1c(-c2ccc(O)cc2)oc2ccc(O)c(CN3CCCC(CO)C3)c12 (centres unmarked)"
  category-label: "MET"
- molecule: "CC(C)(C)OC(=O)N1CCN(C(=O)c2c(-c3ccccc3)oc3ccc(O)c(CN4CCCCC4)c23)CC1"
  category-label: "MET"

---

Target: Mtb Pks13-TE domain (wild-type) (Mycobacterium tuberculosis, UniProt I6X8D2)
Sequence (I6X8D2 1451-1733): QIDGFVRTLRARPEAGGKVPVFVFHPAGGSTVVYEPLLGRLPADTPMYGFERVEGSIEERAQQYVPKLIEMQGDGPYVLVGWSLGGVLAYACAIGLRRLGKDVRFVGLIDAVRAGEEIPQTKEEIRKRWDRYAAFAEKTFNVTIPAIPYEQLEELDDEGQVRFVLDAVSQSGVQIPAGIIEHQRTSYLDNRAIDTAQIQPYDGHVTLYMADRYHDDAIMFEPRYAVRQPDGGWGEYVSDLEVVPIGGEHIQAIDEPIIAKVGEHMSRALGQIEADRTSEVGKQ
Assay: biochemical
Assay type: biochemical
Details: Pks13-TE, 20 μM 4-MUH; read-out: IC50

- compound: "CNC(=O)c1c(-c2ccc(O)cc2)oc2ccc(O)c(CN3CCC(CO)C3)c12 (centres unmarked)"
  assayed-system: "Mtb Pks13-TE domain (wild-type) (Mycobacterium tuberculosis, UniProt I6X8D2)"
  IC50: "510 nM"
- compound: "O=S(=O)(Nc1ccc2oc(-c3ccccc3)cc2c1CN1CCC(N2CCCCC2)CC1)C(F)(F)F"
  assayed-system: "Mtb Pks13-TE domain (wild-type) (Mycobacterium tuberculosis, UniProt I6X8D2)"
  IC50: "> 40000 nM"
- compound: "CNC(=O)c1c(-c2ccccc2)oc2ccc(O)c(CCN3CC(CO)(CBr)C3)c12"
  assayed-system: "Mtb Pks13-TE domain (wild-type) (Mycobacterium tuberculosis, UniProt I6X8D2)"
  IC50: "1250 nM"
- compound: "NC(=O)c1c(-c2ccc(O)cc2)oc2ccc(O)c(CN3CCCCC3)c12"
  assayed-system: "Mtb Pks13-TE domain (wild-type) (Mycobacterium tuberculosis, UniProt I6X8D2)"
  IC50: "170 nM"
- compound: "CNC(=O)c1c(-c2cccc(OC)c2)oc2ccc(O)c(CN3CCCCC3)c12"
  assayed-system: "Mtb Pks13-TE domain (wild-type) (Mycobacterium tuberculosis, UniProt I6X8D2)"
  IC50: "400 nM"
- compound: "CCOC(=O)c1c(-c2ccccc2)oc2ccc(O)c(CCN3CCC4(COC4)C3)c12"
  assayed-system: "Mtb Pks13-TE domain (wild-type) (Mycobacterium tuberculosis, UniProt I6X8D2)"
  IC50: "2500 nM"
- compound: "CNC(=O)c1c(-c2ccccc2)oc2ccc(O)c(CCCN3CCC3)c12 [compound 200]"
  assayed-system: "Mtb Pks13-TE domain (wild-type) (Mycobacterium tuberculosis, UniProt I6X8D2)"
  IC50: "4400 nM"
- compound: "CCOC(=O)c1c(-c2ccccc2)oc2ccc(O)c(CN3CCCCC3=O)c12"
  assayed-system: "Mtb Pks13-TE domain (wild-type) (Mycobacterium tuberculosis, UniProt I6X8D2)"
  IC50: "> 20000 nM"

---

Target: Mtb Pks13-TE domain (wild-type) (Mycobacterium tuberculosis, UniProt I6X8D2)
Experiment: biochemical
Type: biochemical
Conditions: Pks13-TE, 20 μM 4-MUH; read-out: IC50
pIC50: −log10 of the molar value.
// reported pIC50 per item

- compound: "CCOC(=O)c1c(-c2ccccc2)oc2cc(O)cc(CCN)c12 [compound 55]"
  value-operator: "="
  pIC50: 5.40
- compound: "CNC(=O)c1c(-c2ccccc2)oc2ccc(O)c(CCN[C@@H](Cc3cnc[nH]3)C(=O)NC)c12"
  value-operator: "="
  pIC50: 6.00
- compound: "CCOC(=O)c1c(-c2ccccc2)oc2ccc(O)c(CCN3CCC4(CC3)COC4)c12"
  value-operator: "<"
  pIC50: 4.40
- compound: "CCOC(=O)c1c(-c2ccccc2)oc2ccc(O)c(CN3CCCCC3)c12"
  value-operator: "="
  pIC50: 6.52

---

System: human dermal fibroblast (HDF) cells
Conditions: human, 48 h

- compound: "CCOC(=O)c1c(-c2ccccc2)oc2cc(OC)cc(CNC(C)C)c12 [compound 72]"
  Non-Toxic Concentration, µM: 3.125
- compound: "CCOC(=O)c1c(-c2cc(F)c(O)c(F)c2)oc2ccc(O)c(CN3CCCCC3)c12 [compound 63]"
  Non-Toxic Concentration, µM: 25
- compound: "CCOC(=O)c1c(-c2ccccc2)oc2cc(O)cc(CN3CCCCC3)c12 [compound 38]"
  Non-Toxic Concentration, µM: 100
- compound: "CNC(=O)c1c(-c2ccc(OC)cc2)oc2ccc(O)c(CN3CCCCC3)c12 [compound 31]"
  Non-Toxic Concentration, µM: 50
- compound: "O=C(c1c(-c2ccccc2)oc2ccc(O)c(CN3CCCCC3)c12)N1CCCCC1 [compound 42]"
  Non-Toxic Concentration, µM: 100
- compound: "CC(=O)NCCNC(=O)c1c(-c2ccccc2)oc2ccc(O)c(CN3CCCCC3)c12 [compound 44]"
  Non-Toxic Concentration, µM: 50
- compound: "CCOC(=O)c1c(-c2ccccc2)oc2ccc(O)c(CN3CCCCC3)c12 [compound 13]"
  Non-Toxic Concentration, µM: 50
- compound: "CNC(=O)c1c(-c2ccccc2)oc2ccc(O)c(CN3CCCCC3)c12 [compound 17]"
  Non-Toxic Concentration, µM: 50

---

Target: Mtb Pks13-TE domain (wild-type) (Mycobacterium tuberculosis, UniProt I6X8D2)
Test: biochemical
Type: biochemical
Conditions: Pks13-TE, 20 μM 4-MUH; read-out: IC50
The label fulfilled is reserved for IC50 strictly under 2000 nM; not fulfilled covers values equal to or above it.

- molecule: "CCOC(=O)c1c(-c2ccccc2)oc2ccc(O)c(CN3CCOCC3)c12"
  assayed-system: "Mtb Pks13-TE domain (wild-type) (Mycobacterium tuberculosis, UniProt I6X8D2)"
  category-label: "fulfilled"
- molecule: "CCOC(=O)c1c(-c2ccccc2)oc2ccc(O)c(CCCN3CCC[C@H]3C)c12"
  assayed-system: "Mtb Pks13-TE domain (wild-type) (Mycobacterium tuberculosis, UniProt I6X8D2)"
  category-label: "fulfilled"
- molecule: "CNC(=O)c1c(-c2ccccc2)oc2ccc(O)c(CCN3CCC(O)CC3)c12"
  assayed-system: "Mtb Pks13-TE domain (wild-type) (Mycobacterium tuberculosis, UniProt I6X8D2)"
  category-label: "not fulfilled"
- molecule: "CCOC(=O)c1c(-c2ccc(O)cc2)oc2ccc(O)c(CCCN3CCC3)c12"
  assayed-system: "Mtb Pks13-TE domain (wild-type) (Mycobacterium tuberculosis, UniProt I6X8D2)"
  category-label: "not fulfilled"
- molecule: "CCOC(=O)CCCC1CCN(CCCc2c(O)ccc3oc(-c4ccccc4)c(C(=O)OCC)c23)C1 (centres unmarked) [compound 172]"
  assayed-system: "Mtb Pks13-TE domain (wild-type) (Mycobacterium tuberculosis, UniProt I6X8D2)"
  category-label: "fulfilled"
- molecule: "CC[C@@H](CO)NCCc1c(O)ccc2oc(-c3ccccc3)c(C(=O)NC)c12"
  assayed-system: "Mtb Pks13-TE domain (wild-type) (Mycobacterium tuberculosis, UniProt I6X8D2)"
  category-label: "not fulfilled"
- molecule: "CCOC(=O)c1c(-c2ccc(O)cc2)oc2cc(O)cc(CN3CCCCC3)c12"
  assayed-system: "Mtb Pks13-TE domain (wild-type) (Mycobacterium tuberculosis, UniProt I6X8D2)"
  category-label: "fulfilled"

---

Target: Mtb Pks13-TE domain (wild-type) (Mycobacterium tuberculosis)
Assay: biochemical
Format: biochemical
Conditions: Pks13-TE, 20 μM 4-MUH; read-out: IC50
pIC50: −log10 of the molar value.
measurement-kind: pIC50

- compound: "CNC(=O)c1c(-c2ccccc2)oc2ccc(O)c(CCN3CCNC(=O)C3)c12 [compound 139]"
  obs-value: "< 4.40"
- compound: "CNC(=O)c1c(-c2ccccc2)oc2ccc(O)c(CCN(C(C)C)C(C)C)c12 [compound 140]"
  obs-value: "< 4.40"
- compound: "CCOC(=O)c1c(-c2ccccc2)oc2ccc(O)c(CCNC(C(=O)O)C(F)(F)F)c12 (stereo not shown) [compound 247]"
  obs-value: "< 4.40"
- compound: "CCOC(=O)c1c(-c2ccc(F)cc2)oc2cc(O)cc(CC[N+](C)(C)C)c12 [compound 75]"
  obs-value: "< 4.70"
